- system_name: UniProtKB P30874
- assay_procedure: SSTRs Gi-mediated cAMP inhibition, GloSensor, HEK293, 5 μM forskolin, 15 min room temperature (SSTR2 wild-type)
- Assay type: cell-based
- run_parameters: EC50, cAMP inhibition best-fit; D122A set; WT-1
- Sequence (P30874 whole entry, the tested form may be a part): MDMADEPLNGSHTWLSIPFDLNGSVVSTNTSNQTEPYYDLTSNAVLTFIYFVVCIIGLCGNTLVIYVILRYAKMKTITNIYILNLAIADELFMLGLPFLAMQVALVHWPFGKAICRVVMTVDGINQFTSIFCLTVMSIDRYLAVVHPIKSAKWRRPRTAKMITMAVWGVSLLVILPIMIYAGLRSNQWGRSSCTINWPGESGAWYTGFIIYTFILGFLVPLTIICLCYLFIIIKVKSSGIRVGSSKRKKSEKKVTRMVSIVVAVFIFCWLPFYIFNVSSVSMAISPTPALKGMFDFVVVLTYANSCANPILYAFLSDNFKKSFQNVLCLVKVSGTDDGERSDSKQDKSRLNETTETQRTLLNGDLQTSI
pEC50: −log10 of the molar value.
reported_metric: pEC50

>>> measured_value("N#Cc1cccc(-c2ccc3ncc(-c4cc(F)cc(F)c4)c(N4CCC(N)CC4)c3c2)c1O [paltusotine]")
8.63

---

- system_name: SSTR2 mutants (Homo sapiens, UniProt P30874)
- Sequence (P30874 whole entry Y205R): as the sequence (P30874 whole entry, the tested form may be a part) above, with Y205R counted along it
- assay_procedure: SSTRs Gi-mediated cAMP inhibition, GloSensor, HEK293, 5 μM forskolin, 15 min room temperature (SSTR2 mutants)
- Format: cell-based
- run_parameters: EC50, F294Y, run 1
- Experimental: The levels of the intracellular 3′, 5′-cyclic AMP (cAMP) were measured by the GloSensor cAMP assay (Promega) as described in the previous studies[28],[41] which has been widely used. The human full-length SSTRs and mutants were cloned into the pcDNA3.1+ vector with a HA signal sequence followed by a Flag tag at the N-terminus. […] Fluorescence signals were measured using the Synergy H1 microplate reader (BioTek) and the data presented are means of at least three independent experiments.
reported_metric: EC50 (pM)

>>> measured_value("N#Cc1cccc(-c2ccc3ncc(-c4cc(F)cc(F)c4)c(N4CCC(N)CC4)c3c2)c1O")
735

---

- system_name: SSTR2 mutants (Homo sapiens, UniProt P30874, W269A)
- Sequence (P30874 whole entry W269A): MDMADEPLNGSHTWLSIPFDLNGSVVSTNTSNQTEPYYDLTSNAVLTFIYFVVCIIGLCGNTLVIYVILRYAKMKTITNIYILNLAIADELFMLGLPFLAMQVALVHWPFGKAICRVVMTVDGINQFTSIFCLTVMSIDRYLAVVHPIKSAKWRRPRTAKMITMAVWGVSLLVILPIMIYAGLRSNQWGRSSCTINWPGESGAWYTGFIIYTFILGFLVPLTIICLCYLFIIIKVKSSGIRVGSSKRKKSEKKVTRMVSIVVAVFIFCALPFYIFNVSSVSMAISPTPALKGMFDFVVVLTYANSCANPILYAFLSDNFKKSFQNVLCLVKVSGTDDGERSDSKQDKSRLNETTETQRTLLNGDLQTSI
- assay_procedure: Bystander BRET endosomal trafficking (β-arrestin 1-Nluc, FYVE-mVenus), HEK293 (SSTR2 mutants)
reported_metric: EC50 (nM)

>>> measured_value("N#Cc1cccc(-c2ccc3ncc(-c4cc(F)cc(F)c4)c(N4CCC(N)CC4)c3c2)c1O [paltusotine]")
130

---

- system_name: SSTR2 (Homo sapiens)
- assay_procedure: NanoBiT β-arrestin 1 recruitment assay, HEK293 (SSTR2 wild-type)
- Format: cell-based
- Design: Human full-length SSTR wild-type and mutant vectors were C-terminally fused; expressed in transfected cells; host or cells: HEK293
- run_parameters: EC50 (best-fit), WT-1 (V103A set)
- Sequence (P30874 whole entry, the tested form may be a part): as the sequence (P30874 whole entry, the tested form may be a part) above
- Sequence (P49407 whole entry partner, the tested form may be a part): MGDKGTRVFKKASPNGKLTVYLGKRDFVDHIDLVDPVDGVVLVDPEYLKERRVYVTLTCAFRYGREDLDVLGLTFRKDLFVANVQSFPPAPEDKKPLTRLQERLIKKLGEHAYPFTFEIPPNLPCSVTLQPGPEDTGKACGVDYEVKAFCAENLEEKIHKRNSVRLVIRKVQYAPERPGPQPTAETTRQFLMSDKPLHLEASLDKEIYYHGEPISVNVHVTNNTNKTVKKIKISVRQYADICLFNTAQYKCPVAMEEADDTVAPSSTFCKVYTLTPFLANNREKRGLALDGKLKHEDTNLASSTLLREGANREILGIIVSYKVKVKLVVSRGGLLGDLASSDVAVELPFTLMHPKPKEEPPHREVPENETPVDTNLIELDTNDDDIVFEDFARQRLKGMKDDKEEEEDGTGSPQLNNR
reported_metric: EC50 (nM)

>>> measured_value("N#Cc1cccc(-c2ccc3ncc(-c4cc(F)cc(F)c4)c(N4CCC(N)CC4)c3c2)c1O")
306

---

- Test system: SSTR2 mutants
- assay_procedure: SSTRs Gi-mediated cAMP inhibition, GloSensor, HEK293, 5 μM forskolin, 15 min room temperature (SSTR2 mutants)
- Format: cell-based, human
- run_parameters: T194A, run 2, best-fit
reported_metric: EC50 (nM)

>>> measured_value("N#Cc1cccc(-c2ccc3ncc(-c4cc(F)cc(F)c4)c(N4CCC(N)CC4)c3c2)c1O")
52.7

---

- system_name: SSTR2 mutants (Homo sapiens, UniProt P30874)
- assay_procedure: SSTRs Gi-mediated cAMP inhibition, GloSensor, HEK293, 5 μM forskolin, 15 min room temperature (SSTR2 mutants)
- Assay type: cell-based
- run_parameters: EC50, D295F, run 1
reported_metric: EC50 (nM)

>>> measured_value("N#Cc1cccc(-c2ccc3ncc(-c4cc(F)cc(F)c4)c(N4CCC(N)CC4)c3c2)c1O")
0.324

---

- Tested on: SSTR2 mutants
- assay_procedure: Bystander BRET endosomal trafficking (β-arrestin 1-Nluc, FYVE-mVenus), HEK293 (SSTR2 mutants);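 also: Read-out is the BRET ratio between Nluc-fused β-arrestin 1 and the early endosome marker FYVE-mVenus, measured after ligand addition with coelenterazine h as substrate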
- run_parameters: read-out: EC50 (best-fit); P220A-3 (run 3)
pEC50: −log10 of the molar value.
reported_metric: pEC50

>>> measured_value("N#Cc1cccc(-c2ccc3ncc(-c4cc(F)cc(F)c4)c(N4CCC(N)CC4)c3c2)c1O [paltusotine]")
6.08

---

- system_name: SSTR2 (Homo sapiens)
- assay_procedure: SSTRs Gi-mediated cAMP inhibition, GloSensor, HEK293, 5 μM forskolin, 15 min room temperature (SSTR2 wild-type)
- Assay type: cell-based
- run_parameters: EC50, cAMP inhibition best-fit; F127A set; WT-3
pEC50: −log10 of the molar value.
reported_metric: pEC50

>>> measured_value("N#Cc1cccc(-c2ccc3ncc(-c4cc(F)cc(F)c4)c(N4CCC(N)CC4)c3c2)c1O [paltusotine]")
9.53

---

- system_name: SSTR2 (Homo sapiens, UniProt P30874)
- assay_procedure: SSTRs Gi-mediated cAMP inhibition, GloSensor, HEK293, 5 μM forskolin, 15 min room temperature (SSTR2 wild-type)
- Assay type: cell-based
- run_parameters: EC50, WT-1, run paired with V103N
reported_metric: EC50 (nM)

>>> measured_value("N#Cc1cccc(-c2ccc3ncc(-c4cc(F)cc(F)c4)c(N4CCC(N)CC4)c3c2)c1O")
2.1

---

- system_name: SSTR2 (Homo sapiens, UniProt P30874)
- assay_procedure: NanoBiT β-arrestin 1 recruitment assay, HEK293 (SSTR2 wild-type)
- Type: cell-based
- Design: Human full-length SSTR wild-type and mutant vectors were C-terminally fused; expressed in transfected cells; host or cells: HEK293
- run_parameters: EC50 (best-fit), WT-2 (V103A set)
reported_metric: EC50 (nM)

>>> measured_value("N#Cc1cccc(-c2ccc3ncc(-c4cc(F)cc(F)c4)c(N4CCC(N)CC4)c3c2)c1O")
295

---

- system_name: SSTR2 (Homo sapiens, UniProt P30874)
- assay_procedure: Bystander BRET endosomal trafficking (β-arrestin 1-Nluc, FYVE-mVenus), HEK293 (SSTR2 wild-type);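 also: HEK293 cells coexpressing Nluc-tagged β-arrestin 1 and mVenus-fused FYVE endosomal marker, bystander BRET ratio read after ligand addition, coelenterazine h substrate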
- Assay type: cell-based
- Parameters: The human full-length SSTRs and mutants were cloned into the pcDNA3.1+ vector; expressed in transfected cells; host or cells: HEK293
- run_parameters: EC50, best-fit value, WT-2 (F265A, I284A, K291A blocks)
reported_metric: EC50 (nM)

>>> measured_value("N#Cc1cccc(-c2ccc3ncc(-c4cc(F)cc(F)c4)c(N4CCC(N)CC4)c3c2)c1O [paltusotine]")
131

---

- system_name: SSTR2 (Homo sapiens, UniProt P30874)
- assay_procedure: NanoBiT β-arrestin 1 recruitment assay, HEK293 (SSTR2 wild-type)
- Assay type: cell-based
- Design: Human full-length SSTR wild-type and mutant vectors were C-terminally fused; expressed in transfected cells; host or cells: HEK293
- run_parameters: EC50 (best-fit), WT-3 (D122A set)
pEC50: −log10 of the molar value.
reported_metric: pEC50

>>> measured_value("N#Cc1cccc(-c2ccc3ncc(-c4cc(F)cc(F)c4)c(N4CCC(N)CC4)c3c2)c1O")
6.34

---

- system_name: SSTR2 (Homo sapiens, UniProt P30874)
- assay_procedure: SSTRs Gi-mediated cAMP inhibition, GloSensor, HEK293, 5 μM forskolin, 15 min room temperature (SSTR2 wild-type)
- Assay type: cell-based
- run_parameters: EC50, cAMP inhibition best-fit; Q126A set; WT-2
reported_metric: EC50 (nM)

>>> measured_value("N#Cc1cccc(-c2ccc3ncc(-c4cc(F)cc(F)c4)c(N4CCC(N)CC4)c3c2)c1O")
1.58

---

- system_name: UniProtKB P30874
- assay_procedure: NanoBiT β-arrestin 1 recruitment assay, HEK293 (SSTR2 wild-type)
- Format: cell-based
- Design: Human full-length SSTR wild-type and mutant vectors were C-terminally fused; expressed in transfected cells; host or cells: HEK293
- run_parameters: Best-fit EC50, SSTR2-WT-3 control of Y50A-3
reported_metric: EC50 (nM)

>>> measured_value("N#Cc1cccc(-c2ccc3ncc(-c4cc(F)cc(F)c4)c(N4CCC(N)CC4)c3c2)c1O")
306

---

- system_name: SSTR2 (Homo sapiens, UniProt P30874)
- assay_procedure: SSTRs Gi-mediated cAMP inhibition, GloSensor, HEK293, 5 μM forskolin, 15 min room temperature (SSTR2 wild-type)
- Format: cell-based
- run_parameters: EC50, WT-1, run paired with F294Y
- Method: The levels of the intracellular 3′, 5′-cyclic AMP (cAMP) were measured by the GloSensor cAMP assay (Promega) as described in the previous studies[28],[41] which has been widely used. The human full-length SSTRs and mutants were cloned into the pcDNA3.1+ vector with a HA signal sequence followed by a Flag tag at the N-terminus. […] Fluorescence signals were measured using the Synergy H1 microplate reader (BioTek) and the data presented are means of at least three independent experiments.
pEC50: −log10 of the molar value.
reported_metric: pEC50

>>> measured_value("N#Cc1cccc(-c2ccc3ncc(-c4cc(F)cc(F)c4)c(N4CCC(N)CC4)c3c2)c1O")
9.51

---

- system_name: SSTR2 (Homo sapiens)
- assay_procedure: NanoBiT β-arrestin 1 recruitment assay, HEK293 (SSTR2 wild-type)
- Format: cell-based
- Design: Human full-length SSTR wild-type and mutant vectors were C-terminally fused; expressed in transfected cells; host or cells: HEK293
- run_parameters: EC50 (best-fit), WT-3 (Q102A set)
pEC50: −log10 of the molar value.
reported_metric: pEC50

>>> measured_value("N#Cc1cccc(-c2ccc3ncc(-c4cc(F)cc(F)c4)c(N4CCC(N)CC4)c3c2)c1O [paltusotine]")
6.34

Hey, just so you know, these numbers are from paper PMC9944328.
